Biological target: GPCR HM74A (niacin receptor) (Homo sapiens, UniProt Q8TDS4)
Sequence (Q8TDS4 whole entry): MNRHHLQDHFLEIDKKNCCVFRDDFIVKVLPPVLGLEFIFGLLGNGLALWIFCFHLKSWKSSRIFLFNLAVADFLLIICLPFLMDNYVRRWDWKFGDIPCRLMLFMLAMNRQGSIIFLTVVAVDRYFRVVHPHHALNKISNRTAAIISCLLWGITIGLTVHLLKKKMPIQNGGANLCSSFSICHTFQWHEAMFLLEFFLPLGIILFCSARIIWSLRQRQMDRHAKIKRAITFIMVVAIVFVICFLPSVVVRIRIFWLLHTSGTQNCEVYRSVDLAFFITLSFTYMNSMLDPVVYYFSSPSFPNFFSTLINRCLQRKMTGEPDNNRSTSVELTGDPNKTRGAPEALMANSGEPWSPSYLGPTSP
Assay: FLIPR in vitro functional assay, intracellular Ca2+ in recombinant HEK293 cells expressing HM74A and Gα6qi4myr
Settings: 100% = 1 μM niacin
pEC50: −log10 of the molar value.
Each entry gets Not met if its pEC50 stays under 5, and Met if its pEC50 is 5 or above.

See these solved cases before continuing.
>>> class_label("O=C(O)c1cc(=O)c(OCc2cccc(Cl)c2)co1")
"Not met"
>>> class_label("CC(C)Oc1coc(C(=O)O)cc1=O")
"Met"
>>> class_label("Cc1ccc(/C=C/c2coc(C(=O)O)cc2=O)cc1")
"Met"

## Input Please indicate if the recorded pEC50 for CCCCOc1coc(C(=O)O)cc1=O meets or exceeds 5.
## Output Not met

## Input Answer whether pEC50 of C/C=C/c1oc(C(=O)O)cc(=O)c1OCc1ccc(C#N)cc1 is greater than or equal to 5.
## Output Met

## Input Decide: is the reported value of pEC50 for N#Cc1cccc(COc2coc(C(=O)O)cc2=O)c1 equal to or greater than 5?
## Output Not met

###

Molecular target: UniProt Q8TDS4
Assay: FLIPR in vitro functional assay, intracellular Ca2+ in recombinant HEK293 cells expressing HM74A and Gα6qi4myr
Conditions: 100% = 1 μM niacin
Measured EC50 accompanies every entry in the list below.
Supply the numeric figure in nM, leaving out any unit text.

# lookup: C/C=C/c1oc(C(=O)O)cc(=O)c1OCC on UniProt Q8TDS4, EC50 = 730

GET /values?item= CCCCCOc1coc(C(=O)O)cc1=O &system= UniProt Q8TDS4 returns EC50: 1200

Hey, UniProt Q8TDS4 data for Cc1ccc(COc2coc(C(=O)O)cc2=O)cc1 : EC50 came out at 4120

###

Consider the following compounds and their measured pEC50 readings.
Biological target: GPCR HM74A (niacin receptor) (Homo sapiens, UniProt Q8TDS4)
Construct: expressed in transfected cells; host or cells: HEK293
Test: FLIPR in vitro functional assay, intracellular Ca2+ in recombinant HEK293 cells expressing HM74A and Gα6qi4myr
Assay type: cell-based
Settings: 100% = 1 μM niacin
pEC50 field: float, defined as -log10 of concentration (mol/L).

Example entries begin here.
>>> endpoint_value("C/C=C/c1oc(C(=O)O)cc(=O)c1OCCCCC")
6.41
>>> endpoint_value("O=C(O)c1cc(=O)c(OCc2ccc(OC(F)(F)F)cc2)co1")
4.65
>>> endpoint_value("O=C(O)c1cc(=O)c(OCc2ccc(Cl)cc2)co1")
5.13
>>> endpoint_value("Cc1cc(C)cc(COc2coc(C(=O)O)cc2=O)c1")
4.51
>>> endpoint_value("O=C(O)c1cc(=O)c(OCc2ccc([N+](=O)[O-])cc2)co1")
4.36
>>> endpoint_value("CCCc1oc(C(=O)O)cc(=O)c1OCc1ccc(C#N)cc1")
4.35
>>> endpoint_value("O=C(O)c1cc(=O)cco1")
7.05
>>> endpoint_value("CCC(C)c1coc(C(=O)O)cc1=O (stereo not shown)")
6.80
>>> endpoint_value("CC(C)COc1coc(C(=O)O)cc1=O")
4.34

From here, focus on the item given below.
Looking up O=C(O)c1cc(=O)c(OCc2ccc(OC(F)F)cc2)co1 , I see its pEC50 listed as 5.74
